# melting point listing for each entry below

{"compound": "CC(OC(=O)c1ccc(C2=NNC(=O)CC2)cc1)C1CC1 (centres unmarked) [Example 38]", "melting point": "104 to 105 °C"}
{"compound": "COc1ccc(CCNC(=O)c2ccc(C3=NNC(=O)CC3C)cc2)cc1OC (centres unmarked) [Example 63]", "melting point": "146 to 147 °C"}
{"compound": "CC1CC(=O)NN=C1c1ccc(C(=O)NCC(c2ccccc2)c2ccccc2)cc1 (centres unmarked) [Example 59]", "melting point": "186 to 187 °C"}
{"compound": "O=C1CCC(c2ccc(C(=O)Nc3ccccc3Cl)cc2)=NN1 [Example 18]", "melting point": "209 to 210 °C"}
{"compound": "O=C1CCC(c2ccc(C(=O)Nc3cccc(C(F)(F)F)c3)cc2)=NN1 [Example 28]", "melting point": "229 to 230 °C"}
{"compound": "O=C1CCC(c2ccc(C(=O)NCCc3ccccc3F)cc2)=NN1 [Example 43]", "melting point": "189 to 190 °C"}
{"compound": "O=C1CCC(c2ccc(C(=O)OC3CCCC3)cc2)=NN1 [Example 35]", "melting point": "167 to 169 °C"}
{"compound": "O=C1CCC(c2ccc(C(=O)Nc3cccc(Cl)c3)cc2)=NN1 [Example 22]", "melting point": "> 250 °C"}
{"compound": "O=C1CCC(c2ccc(C(=O)OCc3ccccc3)cc2)=NN1 [Example 41]", "melting point": "156 to 157 °C"}
{"compound": "O=C1CCC(c2ccc(C(=O)NCc3ccccc3F)cc2)=NN1 [Example 49]", "melting point": "186 to 187 °C"}
{"compound": "O=C1CCC(c2ccc(C(=O)NC3CC3)cc2)=NN1 [Example 11]", "melting point": "248 to 250 °C"}
{"compound": "O=C1CCC(c2ccc(C(=O)N3CCCCC3)cc2)=NN1 [Example 19]", "melting point": "182 to 184 °C"}
{"compound": "CCCCNC(=O)c1ccc(C2=NNC(=O)CC2)cc1 [Example 4]", "melting point": "217 to 218 °C"}
{"compound": "CCC(C)OC(=O)c1ccc(C2=NNC(=O)CC2)cc1 (centres unmarked) [Example 33]", "melting point": "120 to 122 °C"}
{"compound": "Cc1ccc(NC(=O)c2ccc(C3=NNC(=O)CC3)cc2)cc1 [Example 21]", "melting point": "> 250 °C"}
{"compound": "NC(=O)c1ccccc1NC(=O)c1ccc(C2=NNC(=O)CC2)cc1 [Example 51]", "melting point": "> 250 °C"}
{"compound": "O=C1CCC(c2ccc(C(=O)Nc3c(F)cccc3F)cc2)=NN1 [Example 45]", "melting point": "278 to 279 °C"}
{"compound": "O=C1CCC(c2ccc(C(=O)Nc3c(Cl)cccc3Cl)cc2)=NN1 [Example 8]", "melting point": "> 250 °C"}
{"compound": "C=CCOC(=O)c1ccc(C2=NNC(=O)CC2)cc1 [Example 36]", "melting point": "131 to 133 °C"}
{"compound": "CC1CC(=O)NN=C1c1ccc(C(=O)Nc2cccnc2)cc1 (centres unmarked) [Example 53]", "melting point": "267 to 268 °C"}

---

# melting point listing for each entry below

{"molecule": "COC(=O)c1ccc(C2=NNC(=O)CC2)cc1 [Example 6]", "melting point": "203 to 205 °C"}
{"molecule": "COC(=O)c1ccc(NC(=O)c2ccc(C3=NNC(=O)CC3)cc2)o1 [Example 24]", "melting point": "> 260 °C"}
{"molecule": "CC(C)CCNC(=O)c1ccc(C2=NNC(=O)CC2C)cc1 (centres unmarked) [Example 58]", "melting point": "152 to 153 °C"}
{"molecule": "O=C1CCC(c2ccc(C(=O)NCCc3ccccc3)cc2)=NN1 [Example 10]", "melting point": "223 to 226 °C"}
{"molecule": "CCNC(=O)c1ccc(C2=NNC(=O)CC2)cc1 [Example 15]", "melting point": "228 to 230 °C"}
{"molecule": "CNC(=O)c1ccc(C2=NNC(=O)CC2)cc1 [Example 14]", "melting point": "233 to 234 °C"}
{"molecule": "CC(C)OC(=O)c1ccc(C2=NNC(=O)CC2)cc1 [Example 9]", "melting point": "155 to 156 °C"}
{"molecule": "O=C1CCC(c2ccc(C(=O)OCCc3ccccc3)cc2)=NN1 [Example 39]", "melting point": "146 to 148 °C"}
{"molecule": "CCOC(=O)c1ccc(C2=NNC(=O)CC2)cc1 [Example 12]", "melting point": "157 to 159 °C"}
{"molecule": "CC(C)CNC(=O)c1ccc(C2=NNC(=O)CC2C)cc1 (centres unmarked) [Example 62]", "melting point": "166 to 167 °C"}
{"molecule": "O=C1CCC(c2ccc(C(=O)OCC3CC3)cc2)=NN1 [Example 34]", "melting point": "158 to 159 °C"}

---

quantity name: melting point

{"compound": "O=C1CCC(c2ccc(C(=O)NCc3ccco3)cc2)=NN1 [Example 5]", "quantity name": "melting point", "measurement": "208 to 210 °C"}
{"compound": "CC1CC(=O)NN=C1c1ccc(C(=O)NC2CC2)cc1 (centres unmarked) [Example 57]", "quantity name": "melting point", "measurement": "216 to 217 °C"}
{"compound": "CC(C)COC(=O)c1ccc(C2=NNC(=O)CC2)cc1 [Example 32]", "quantity name": "melting point", "measurement": "259 to 260 °C"}
{"compound": "O=C1CCC(c2ccc(C(=O)Nc3ccccc3)cc2)=NN1 [Example 13]", "quantity name": "melting point", "measurement": "> 250 °C"}
{"compound": "CC1CC(=O)NN=C1c1ccc(C(=O)N2CCCc3ccccc32)cc1 (centres unmarked) [Example 56]", "quantity name": "melting point", "measurement": "> 260 °C"}

---

# melting point listing for each entry below
quantity name: melting point

{"compound": "O=C1CCC(c2ccc(C(=O)NC3CCCCC3)cc2)=NN1", "quantity name": "melting point", "measurement": "249 to 250 °C"}
{"compound": "NC(=O)c1ccsc1NC(=O)c1ccc(C2=NNC(=O)CC2)cc1", "quantity name": "melting point", "measurement": "> 250 °C"}
{"compound": "CC1CC(=O)NN=C1c1ccc(C(=O)Nc2ccc3ccccc3c2)cc1 (stereo not shown)", "quantity name": "melting point", "measurement": "271 to 272 °C"}
{"compound": "CCCOC(=O)c1ccc(C2=NNC(=O)CC2)cc1", "quantity name": "melting point", "measurement": "283 to 284 °C"}
{"compound": "CC(NC(=O)c1ccc(C2=NNC(=O)CC2)cc1)c1ccccc1 (stereo not shown)", "quantity name": "melting point", "measurement": "242 to 243 °C"}
{"compound": "O=C1CCC(c2ccc(C(=O)N3CCOCC3)cc2)=NN1", "quantity name": "melting point", "measurement": "202 to 203 °C"}
{"compound": "O=C1CCC(c2ccc(C(=O)N3CCCc4ccccc43)cc2)=NN1", "quantity name": "melting point", "measurement": "215 to 216 °C"}
{"compound": "CN(CCOC(=O)c1ccc(C2=NNC(=O)CC2)cc1)Cc1ccccc1", "quantity name": "melting point", "measurement": "90 to 91 °C"}
{"compound": "CN(C(=O)c1ccc(C2=NNC(=O)CC2)cc1)c1ccccc1", "quantity name": "melting point", "measurement": "208 to 209 °C"}
{"compound": "O=C1CCC(c2ccc(C(=O)NCc3ccccn3)cc2)=NN1", "quantity name": "melting point", "measurement": "228 to 230 °C"}

---

# melting point listing for each entry below

{"compound": "CC1CC(=O)NN=C1c1ccc(C(=O)Nc2cccc3ccccc23)cc1 (stereo not drawn)", "melting point": "266 to 267 °C"}
{"compound": "COc1ccc(CCNC(=O)c2ccc(C3=NNC(=O)CC3C)cc2)cc1 (stereo not drawn)", "melting point": "245 to 246 °C"}
{"compound": "O=C1CCC(c2ccc(C(=O)NCCc3cccs3)cc2)=NN1", "melting point": "215 to 216 °C"}
{"compound": "O=C1CCC(c2ccc(C(=O)OCC3CCC3)cc2)=NN1", "melting point": "155 to 156 °C"}
{"compound": "O=C1CCC(c2ccc(C(=O)NCc3cccc4ccccc34)cc2)=NN1", "melting point": "258 to 260 °C"}
{"compound": "COc1cccc(CCNC(=O)c2ccc(C3=NNC(=O)CC3C)cc2)c1 (stereo not drawn)", "melting point": "164 to 165 °C"}
{"compound": "O=C1CCC(c2ccc(C(=O)NCc3ccccc3)cc2)=NN1", "melting point": "208 to 209 °C"}
{"compound": "O=C1CCC(c2ccc(C(=O)NCc3cccnc3)cc2)=NN1", "melting point": "220 to 223 °C"}
{"compound": "O=C1CCC(c2ccc(C(=O)NCc3ccc(Cl)c(Cl)c3)cc2)=NN1", "melting point": "208 to 209 °C"}
